tested on: STAT5; assay: Immunoblotting (Western blot) analysis of STAT5 degradation efficiency of degraders in treated cells; assay type: cell-based; details: KU-812 cells, read-out: DC50 S5 KU-812
Reported DC50 values for the following compounds.

Previously resolved entries follow.
INSERT INTO measurements (compound, measured_target, measurement) VALUES
  ('CC(C)(C)[C@H](NC(=O)c1cc2cc(C(F)(F)P(=O)(O)O)ccc2s1)C(=O)N1CCC[C@H]1C(=O)N(CCC(=O)NCCCCCC#Cc1cccc2c1CN(C1CCC(=O)NC1=O)C2=O)c1ccc(Br)cc1 (stereo partly drawn)', 'STAT5', '100 to 1000 nM'),
  ('CC(C)(C)[C@H](NC(=O)c1cc2cc(C(F)(F)P(=O)(O)O)ccc2s1)C(=O)N1CCC[C@H]1C(=O)N(CCC(=O)NCCC#Cc1cccc2c1CN(C1CCC(=O)NC1=O)C2=O)c1ccc(Br)cc1 (stereo partly drawn)', 'STAT5', '> 10000 nM'),
  ('CC(C)(C)[C@H](NC(=O)c1cc2cc(C(F)(F)P(=O)(O)O)ccc2s1)C(=O)N1CCC[C@H]1C(=O)N(CCC(=O)NCCCC#Cc1cccc2c1CN(C1CCC(=O)NC1=O)C2=O)c1ccc(Cl)cc1 (stereo partly drawn)', 'STAT5', '1000 to 10000 nM'),
  ('CC(C)(C)[C@H](NC(=O)c1cc2cc(C(F)(F)P(=O)(O)O)ccc2s1)C(=O)N1CCC[C@H]1C(=O)N(CCC(=O)NCCCC#Cc1cccc2c1CN(C1CCC(=O)NC1=O)C2=O)c1ccc2sccc2c1 (stereo partly drawn)', 'STAT5', '100 to 1000 nM'),
  ('CC(C)(C)[C@H](NC(=O)c1cc2cc(C(F)(F)P(=O)(O)O)ccc2s1)C(=O)N1CCC[C@H]1C(=O)N(CCC(=O)NCCCCC#Cc1cccc2c1CN(C1CCC(=O)NC1=O)C2=O)c1ccc(Br)cc1 (stereo partly drawn)', 'STAT5', '100 to 1000 nM');

We next turn to a different compound, shown below.
INPUT: Respond only with DC50 recorded for CC(C)(C)[C@H](NC(=O)c1cc2cc(C(F)(F)P(=O)(O)O)ccc2s1)C(=O)N1CCC[C@H]1C(=O)N(CCC(=O)N1CC(CC#Cc2cccc3c2CN(C2CCC(=O)NC2=O)C3=O)C1)c1ccc(Br)cc1 (stereo partly drawn)
OUTPUT: > 10000 nM

====

target: STAT6 (Homo sapiens, UniProt P42226); construct: endogenous in cells; host or cells: MOLM-16, KU-812, SKNO1, MB231, L1236; experiment: Immunoblotting (Western blot) analysis of STAT6 degradation efficiency of degraders in treated cells; format: cell-based; conditions: MOLM-16 cells, class symbols, read-out: DC50 S6 MOLM-16
Sequence (P42226 whole entry): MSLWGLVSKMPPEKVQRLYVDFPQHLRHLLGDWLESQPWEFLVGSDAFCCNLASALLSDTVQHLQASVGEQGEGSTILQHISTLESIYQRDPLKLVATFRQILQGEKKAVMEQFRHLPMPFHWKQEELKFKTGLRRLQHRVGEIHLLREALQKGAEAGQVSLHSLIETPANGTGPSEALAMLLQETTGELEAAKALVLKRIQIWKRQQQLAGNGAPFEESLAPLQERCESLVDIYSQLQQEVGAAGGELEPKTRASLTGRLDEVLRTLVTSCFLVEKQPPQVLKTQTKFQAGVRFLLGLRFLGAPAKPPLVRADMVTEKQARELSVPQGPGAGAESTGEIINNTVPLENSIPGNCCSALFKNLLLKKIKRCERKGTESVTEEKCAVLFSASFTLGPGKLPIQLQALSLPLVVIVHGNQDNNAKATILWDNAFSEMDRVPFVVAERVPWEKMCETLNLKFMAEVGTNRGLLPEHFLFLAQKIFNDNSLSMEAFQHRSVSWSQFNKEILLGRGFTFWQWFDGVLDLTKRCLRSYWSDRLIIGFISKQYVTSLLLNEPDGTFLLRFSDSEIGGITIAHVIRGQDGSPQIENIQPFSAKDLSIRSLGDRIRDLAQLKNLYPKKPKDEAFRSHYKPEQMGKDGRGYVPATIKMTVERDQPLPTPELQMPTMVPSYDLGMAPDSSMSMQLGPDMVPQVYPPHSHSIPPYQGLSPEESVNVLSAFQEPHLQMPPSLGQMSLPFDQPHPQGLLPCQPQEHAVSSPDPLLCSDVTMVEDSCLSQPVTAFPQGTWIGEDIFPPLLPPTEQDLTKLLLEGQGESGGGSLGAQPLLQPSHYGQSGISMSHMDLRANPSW
QUANTITY_KIND: DC50

INSERT INTO assay_data (compound, measurement) VALUES
  ('CC(C)(C)[C@H](NC(=O)c1cc2cc(C(F)(F)P(=O)(O)O)ccc2s1)C(=O)N1CCN(C(=O)CC(=O)NCCC#Cc2ccc3c(c2)C(=O)N(C2CCC(=O)NC2=O)C3=O)C[C@H]1C(=O)N1CCC[C@H](c2ccccc2)C1 (some centres unmarked)', '> 10 µM');

INPUT: Dear colleague, please send me the reported DC50 for Cc1ncsc1-c1ccc([C@H](C)NC(=O)[C@@H]2C[C@@H](O)CN2C(=O)[C@@H](NC(=O)CCCCCCNC(=O)COc2ccc3c(c2)CN(C(=O)[C@@H](NC(=O)c2cc4cc(C(F)(F)P(=O)(O)O)ccc4s2)C(C)(C)C)[C@H](C(=O)N2CCO[C@H](c4ccccc4)C2)C3)C(C)(C)C)cc1 when you can.
OUTPUT: > 10 µM
